# Assay Details: Influence of the amount of NaCl on the distribution between oil phase and water phase (Example 5)
# Assay type: physicochemical
# Measurement Setup: NaCl 41.67%
Reported Distribution in [%] between oil phase and water phase after condensation: Oil phase values are given for each entry in this list.
Return type: number; implicit unit %.

Completed entries (count: 8):
CC/C=C/CCO [trans-3-hexenol]
90.5
CCCCCCCCO
100
CCOC(=O)C(C)CC (stereo not shown) [ethyl 2-methyl butyrate]
97.9
CCC(C)COC(C)=O (stereo not shown) [2-methyl butyl acetate]
98.6
CC/C=C\CCO [cis-3-hexenol]
73.3
CCCCCCOC(C)=O [hexyl acetate]
100
O=Cc1ccccc1
64.7
CCCCCC(=O)O
91.5

Q. Please give measured Distribution in [%] between oil phase and water phase after condensation: Oil phase of the following entry: CCC(C)CO (stereo not shown)
A. 64.4

Q. Provide one value: measured Distribution in [%] between oil phase and water phase after condensation: Oil phase of CCC/C=C/COC(C)=O [trans-2-hexenyl acetate]
A. 100

Q. Note down Distribution in [%] between oil phase and water phase after condensation: Oil phase recorded for CC(=O)OCC(C)C [2-methylpropyl acetate]
A. 96.2

Q. Report measured Distribution in [%] between oil phase and water phase after condensation: Oil phase; entry is CCOC(C)=O [ethyl acetate]
A. 30.3

Q. Tell me measured Distribution in [%] between oil phase and water phase after condensation: Oil phase for CCCC(=O)OCC [ethyl butyrate] please.
A. 92.9

Q. Please supply the value of reported Distribution in [%] between oil phase and water phase after condensation: Oil phase for the item CCCCCCCO
A. 100

Q. Indicate its recorded Distribution in [%] between oil phase and water phase after condensation: Oil phase; the compound in question is CC/C=C\CCOC(C)=O [cis-3-hexenyl acetate]
A. 100

Q. Please list Distribution in [%] between oil phase and water phase after condensation: Oil phase recorded for the compound CCOC(=O)CC [ethyl propionate]
A. 0

Q. Identify Distribution in [%] between oil phase and water phase after condensation: Oil phase associated with the compound CC(C)CCO
A. 63.1

Q. Fill in Distribution in [%] between oil phase and water phase after condensation: Oil phase for record CCCCCO
A. 67.2

Q. Identify measured Distribution in [%] between oil phase and water phase after condensation: Oil phase corresponding to CCCCOC(C)=O [butyl acetate]
A. 92.5

Q. Entry CCC/C=C/C=O [trans-2-hexenal] needs its Distribution in [%] between oil phase and water phase after condensation: Oil phase filled in; supply it.
A. 71.5

Q. Supply measured Distribution in [%] between oil phase and water phase after condensation: Oil phase of CCCCCCO in your reply.
A. 93.8

====

# Assay Details: Influence of the amount of NaCl on the distribution between oil phase and water phase (Example 5)
# Format: physicochemical
# Measurement Setup: NaCl 55.56 %
Listed molecules paired with reported Distribution in [%] between oil phase and water phase after condensation: Water phase
Unit % implied. Number only.

// below: answered molecules
CCC/C=C/COC(C)=O [trans-2-hexenyl acetate]
0
CC(=O)OCCc1ccccc1 [phenylethyl acetate]
0
CCC(C)CO (stereo not shown)
29.4
CC(=O)OCC(C)C [2-methylpropyl acetate]
2.5
CCCCCCO
3.8
CCCCCCCO
0

Q. Please give measured Distribution in [%] between oil phase and water phase after condensation: Water phase of the following entry: CC/C=C\CCO [cis-3-hexenol]
A. 19.5

Q. Quickly give me recorded Distribution in [%] between oil phase and water phase after condensation: Water phase for CCOC(C)=O [ethyl acetate]
A. 66.8

Q. Give Distribution in [%] between oil phase and water phase after condensation: Water phase for CCCCCC(=O)O
A. 5.1

Q. Report Distribution in [%] between oil phase and water phase after condensation: Water phase, nothing else, for this molecule: CC(C)CCO
A. 30.3

Q. Write down Distribution in [%] between oil phase and water phase after condensation: Water phase measured for item CCCCCC=O
A. 0

Q. Output measured Distribution in [%] between oil phase and water phase after condensation: Water phase for this item: CCCC(CC=O)OCC (stereo not shown)
A. 5.4

Q. Look up and state reported Distribution in [%] between oil phase and water phase after condensation: Water phase for CCC/C=C/C=O [trans-2-hexenal]
A. 23.2

====

Known Distribution in [%] between oil phase and water phase after condensation: Water phase of a selection of molecules
# Assay Details: Influence of the amount of NaCl on the distribution between oil phase and water phase (Example 5)
# Format: physicochemical
# Measurement Setup: NaCl 27.8 %
Write down the numeric answer in % and omit the unit.

Worked cases, answers included:
CCOC(=O)C(C)CC (stereo not shown) [ethyl 2-methyl butyrate]
5
CC(=O)OCCc1ccccc1 [phenylethyl acetate]
3.1
CCCCCCCCO [octanol]
0
CC/C=C\CCOC(C)=O [cis-3-hexenyl acetate]
0

Q. Give the reported value of Distribution in [%] between oil phase and water phase after condensation: Water phase for this record: CCOC(=O)CC [ethyl propionate]
A. 100

Q. Please report the measured Distribution in [%] between oil phase and water phase after condensation: Water phase for CC/C=C\CCO [cis-3-hexenol]
A. 37.2

Q. Hello, please tell me recorded Distribution in [%] between oil phase and water phase after condensation: Water phase for this one: CCCCCO [pentanol]
A. 43.2

====

# Assay Details: Influence of the amount of NaCl on the distribution between oil phase and water phase (Example 5)
# Type: physicochemical
# Measurement Setup: NaCl 69.44 %
Response field label: string, one of yes (1) (Distribution in [%] between oil phase and water phase after condensation: Water phase strictly below 3%) or no (0).

Worked cases, answers included:
CCC/C=C/CO [trans-2-hexenol]
no (0)
O=Cc1ccccc1
no (0)
CCC(C)CO (stereo not drawn)
no (0)
CCC(C)COC(C)=O (stereo not drawn) [2-methyl butyl acetate]
yes (1)
CC(C)CCO
no (0)
CC(=O)OCCc1ccccc1 [phenylethyl acetate]
yes (1)

Q. Quick check: Distribution in [%] between oil phase and water phase after condensation: Water phase of CCCCCCO under 3%?
A. yes (1)

====

# Assay Details: Influence of the amount of NaCl on the distribution between oil phase and water phase (Example 5)
# Type: physicochemical
# Measurement Setup: NaCl 0%
// bucketize Distribution in [%] between oil phase and water phase after condensation: Oil phase: low-valued: < 40%; mid-valued: ≥ 40% and < 70%; high-valued: ≥ 70%

Q. Hi there! Could you help me figure out the category for CCCCCCCCO please?
A. high-valued

Q. Hi there! Could you help me figure out the category for CC/C=C\CCOC(C)=O [cis-3-hexenyl acetate] please?
A. high-valued

Q. Into which bin does this compound go? CCCCCCCO
A. high-valued

Q. Could you tell me which band CCCCCC(=O)O belongs to?
A. mid-valued

Q. Hi there! Could you help me figure out the category for CCCCCC=O please?
A. high-valued

Q. Lab note: sort CCCC(CC=O)OCC (stereo not shown) into the matching Distribution in [%] between oil phase and water phase after condensation: Oil phase band.
A. mid-valued

Q. Form: Item = CCC/C=C/C=O [trans-2-hexenal] ; Class = ?
A. low-valued

Q. Hi, small favor: classify CCC/C=C/COC(C)=O [trans-2-hexenyl acetate] by its Distribution in [%] between oil phase and water phase after condensation: Oil phase when you get a moment.
A. high-valued

====

# Assay Details: Influence of the amount of NaCl on the distribution between oil phase and water phase (Example 5)
# Assay type: physicochemical
# Measurement Setup: NaCl 0%
Labels assigned by Distribution in [%] between oil phase and water phase after condensation: Water phase range: class A = under 20%, class B = from 20% up to 50%, class C = 50% and over

Q. Record CC/C=C/CCO [trans-3-hexenol] — which class?
A. class B

====

# Assay Details: Influence of the amount of NaCl on the distribution between oil phase and water phase (Example 5)
# Type: physicochemical
# Measurement Setup: NaCl 27.8 %
Decide using Distribution in [%] between oil phase and water phase after condensation: Water phase alone. Strictly below 20%: 1. Equal to or above 20%: 0.

Would you please look over these solved cases?
CCC/C=C/CO [trans-2-hexenol]
0
CCOC(C)=O [ethyl acetate]
0
CCCCCCO [hexanol]
1
CCCCCCOC(C)=O [hexyl acetate]
1
CCCCCC=O [hexanal]
1

Q. Given O=Cc1ccccc1 [benzaldehyde] , is recorded Distribution in [%] between oil phase and water phase after condensation: Water phase strictly lower than 20%?
A. 0

Q. Could you please tell me whether Distribution in [%] between oil phase and water phase after condensation: Water phase recorded for CCCC(CC=O)OCC (stereo not drawn) [3-ethoxy-hexanal] is less than 20%?
A. 0

Q. I'd appreciate it if you could check whether CC(=O)OCC(C)C [2-methylpropyl acetate] has Distribution in [%] between oil phase and water phase after condensation: Water phase smaller than 20%.
A. 1

Q. Dear colleague, could you confirm whether Distribution in [%] between oil phase and water phase after condensation: Water phase of CCCC(=O)OCC [ethyl butyrate] falls below 20%? Thanks.
A. 1

Q. Record CC(C)CCO [3-methyl butanol] : is its Distribution in [%] between oil phase and water phase after condensation: Water phase strictly below 20%?
A. 0

Q. Check if Distribution in [%] between oil phase and water phase after condensation: Water phase falls below 20% for CCCCCC(=O)O [caproic acid] .
A. 1

Q. Quick check: Distribution in [%] between oil phase and water phase after condensation: Water phase of CCCCOC(C)=O [butyl acetate] under 20%?
A. 1

Q. Determine if CCC/C=C/C=O [trans-2-hexenal] shows Distribution in [%] between oil phase and water phase after condensation: Water phase strictly lower than 20%.
A. 0

Q. Could you please tell me whether Distribution in [%] between oil phase and water phase after condensation: Water phase recorded for CCC(C)CO (stereo not drawn) [2-methyl butanol] is less than 20%?
A. 0

Q. Is Distribution in [%] between oil phase and water phase after condensation: Water phase of CC/C=C/CCO [trans-3-hexenol] strictly below 20%?
A. 1
